Test system: EKVX
Procedure details: NCI one-dose SRB anti-proliferative screen
Type: cell-based
Measurement setup: Homo sapiens; EKVX (Non-Small Cell Lung Cancer), NCI one dose 10 µM; read-out: Cell growth inhibition %
Measurement name: inhibition at 10 µM (%)
Give just the number in %; leave the unit off.

Report inhibition at 10 µM for O=C(CSc1nnc(-c2ccc3[nH]c(-c4ccc(Cl)cc4)nc3c2)o1)Nc1ccc(C(=O)/C=C/c2ccc(Cl)cc2)cc1 tested on EKVX.
6.19

Report inhibition at 10 µM for O=C(CSc1nnc(-c2ccc3[nH]c(-c4ccc(Cl)cc4)nc3c2)o1)Nc1ccc(C(=O)/C=C/c2ccccc2)cc1 tested on EKVX.
0

Report inhibition at 10 µM for COc1cc(-c2nc3cc(-c4nnc(SCC(=O)Nc5ccc(C(=O)/C=C/c6ccc(Cl)cc6)cc5)o4)ccc3[nH]2)cc(OC)c1OC tested on EKVX.
0.51

Report inhibition at 10 µM for COc1cc(-c2nc3cc(-c4nnc(SCC(=O)Nc5ccc(C(=O)/C=C/c6ccccc6)cc5)o4)ccc3[nH]2)cc(OC)c1OC tested on EKVX.
0

Report inhibition at 10 µM for COc1ccc(-c2nc3cc(-c4nnc(SCC(=O)Nc5ccc(C(=O)/C=C/c6ccc(Cl)cc6)cc5)o4)ccc3[nH]2)cc1OC tested on EKVX.
8.14

* * *

Tested on: Panc-1
Procedure details: Propidium iodide anti-proliferative assay
Assay type: cell-based
Measurement setup: Homo sapiens, 48 h incubation, read-out: IC50 ± SEM Panc-1
Measurement name: pIC50
Reminder that pIC50 is minus the log10 of a molar concentration.

Tell me the measured pIC50 of COc1ccc(/C=C/C(=O)c2ccc(NC(=O)CSc3nnc(-c4ccc5[nH]c(-c6ccc(OC)c(OC)c6)nc5c4)o3)cc2)cc1 , please.
5.41

Tell me the measured pIC50 of O=C(CSc1nnc(-c2ccc3[nH]c(-c4ccc(Cl)cc4)nc3c2)o1)Nc1ccc(C(=O)/C=C/c2ccccc2)cc1 , please.
5.62

Tell me the measured pIC50 of COc1ccc(-c2nc3cc(-c4nnc(SCC(=O)Nc5ccc(C(=O)/C=C/c6cc(OC)c(OC)c(OC)c6)cc5)o4)ccc3[nH]2)cc1 , please.
5.09

Tell me the measured pIC50 of COc1ccc(/C=C/C(=O)c2ccc(NC(=O)CSc3nnc(-c4ccc5[nH]c(-c6ccc(Cl)cc6)nc5c4)o3)cc2)cc1 , please.
5.69

Tell me the measured pIC50 of O=C(CSc1nnc(-c2ccc3[nH]c(-c4ccc(Cl)cc4)nc3c2)o1)Nc1ccc(C(=O)/C=C/c2ccc(Cl)cc2)cc1 , please.
5.72

Tell me the measured pIC50 of COc1ccc(-c2nc3cc(-c4nnc(SCC(=O)Nc5ccc(C(=O)/C=C/c6ccccc6)cc5)o4)ccc3[nH]2)cc1OC , please.
5.51

Tell me the measured pIC50 of O=C(CSc1nnc(-c2ccc3[nH]c(-c4ccccc4)nc3c2)o1)Nc1ccc(C(=O)/C=C/c2ccccc2)cc1 , please.
4.98

Tell me the measured pIC50 of COc1ccc(/C=C/C(=O)c2ccc(NC(=O)CSc3nnc(-c4ccc5[nH]c(-c6ccc(OC)cc6)nc5c4)o3)cc2)cc1 , please.
5.82

Tell me the measured pIC50 of COc1cc(/C=C/C(=O)c2ccc(NC(=O)CSc3nnc(-c4ccc5[nH]c(-c6ccc(Cl)cc6)nc5c4)o3)cc2)cc(OC)c1OC , please.
4.99

Tell me the measured pIC50 of COc1ccc(/C=C/C(=O)c2ccc(NC(=O)CSc3nnc(-c4ccc5[nH]c(-c6ccccc6)nc5c4)o3)cc2)cc1OC , please.
4.99

Tell me the measured pIC50 of COc1cc(/C=C/C(=O)c2ccc(NC(=O)CSc3nnc(-c4ccc5[nH]c(-c6ccccc6)nc5c4)o3)cc2)cc(OC)c1OC , please.
5.77

Tell me the measured pIC50 of COc1cccc2c1C(=O)c1c(O)c3c(c(O)c1C2=O)C[C@@](O)(C(=O)CO)C[C@@H]3O[C@H]1C[C@H](N)[C@H](O)[C@H](C)O1 [Doxorubicin, reference compound] , please.
5.85

Tell me the measured pIC50 of O=C(CSc1nnc(-c2ccc3[nH]c(-c4ccccc4)nc3c2)o1)Nc1ccc(C(=O)/C=C/c2ccc(Cl)cc2)cc1 , please.
5.08

* * *

Provide the reported Growth Percent of each item.
Tested on: HCT-116
Procedure details: NCI one-dose SRB anti-proliferative screen
Format: cell-based, human
Measurement setup: HCT-116 (Colon Cancer), 10 µM one dose
Give just the number in %; leave the unit off.

Tell me the measured Growth Percent of COc1cc(/C=C/C(=O)c2ccc(NC(=O)CSc3nnc(-c4ccc5[nH]c(-c6ccccc6)nc5c4)o3)cc2)cc(OC)c1OC [Compound 7e] , please.
40.76

Tell me the measured Growth Percent of COc1ccc(-c2nc3cc(-c4nnc(SCC(=O)Nc5ccc(C(=O)/C=C/c6ccc(OC)c(OC)c6)cc5)o4)ccc3[nH]2)cc1 [Compound 7n] , please.
57.96

Tell me the measured Growth Percent of COc1ccc(-c2nc3cc(-c4nnc(SCC(=O)Nc5ccc(C(=O)/C=C/c6cc(OC)c(OC)c(OC)c6)cc5)o4)ccc3[nH]2)cc1 [Compound 7o] , please.
50.04

Tell me the measured Growth Percent of COc1ccc(-c2nc3cc(-c4nnc(SCC(=O)Nc5ccc(C(=O)/C=C/c6ccccc6)cc5)o4)ccc3[nH]2)cc1 [Compound 7k] , please.
58.69

* * *

System: Panc-1
Procedure details: Propidium iodide anti-proliferative assay
Format: cell-based
Measurement setup: Homo sapiens, 48 h incubation, read-out: IC50 ± SEM Panc-1
Provide the reported IC50 of each item.
Give just the number in µM; leave the unit off.

Tell me the measured IC50 of COc1ccc(/C=C/C(=O)c2ccc(NC(=O)CSc3nnc(-c4ccc5[nH]c(-c6ccccc6)nc5c4)o3)cc2)cc1 , please.
5.2

Tell me the measured IC50 of COc1ccc(-c2nc3cc(-c4nnc(SCC(=O)Nc5ccc(C(=O)/C=C/c6ccc(Cl)cc6)cc5)o4)ccc3[nH]2)cc1 , please.
1.5

Tell me the measured IC50 of COc1ccc(/C=C/C(=O)c2ccc(NC(=O)CSc3nnc(-c4ccc5[nH]c(-c6cc(OC)c(OC)c(OC)c6)nc5c4)o3)cc2)cc1OC , please.
11.8

Tell me the measured IC50 of COc1ccc(/C=C/C(=O)c2ccc(NC(=O)CSc3nnc(-c4ccc5[nH]c(-c6ccc(Cl)cc6)nc5c4)o3)cc2)cc1OC , please.
10.2

Tell me the measured IC50 of COc1ccc(-c2nc3cc(-c4nnc(SCC(=O)Nc5ccc(C(=O)/C=C/c6ccc(OC)c(OC)c6)cc5)o4)ccc3[nH]2)cc1 , please.
2.05

Tell me the measured IC50 of COc1cc(-c2nc3cc(-c4nnc(SCC(=O)Nc5ccc(C(=O)/C=C/c6ccccc6)cc5)o4)ccc3[nH]2)cc(OC)c1OC , please.
2.4

Tell me the measured IC50 of COc1ccc(-c2nc3cc(-c4nnc(SCC(=O)Nc5ccc(C(=O)/C=C/c6ccccc6)cc5)o4)ccc3[nH]2)cc1 , please.
1.3

Tell me the measured IC50 of COc1cc(-c2nc3cc(-c4nnc(SCC(=O)Nc5ccc(C(=O)/C=C/c6ccc(Cl)cc6)cc5)o4)ccc3[nH]2)cc(OC)c1OC , please.
2.6

Tell me the measured IC50 of COc1ccc(/C=C/C(=O)c2ccc(NC(=O)CSc3nnc(-c4ccc5[nH]c(-c6ccc(OC)c(OC)c6)nc5c4)o3)cc2)cc1OC , please.
4.3

Tell me the measured IC50 of COc1ccc(-c2nc3cc(-c4nnc(SCC(=O)Nc5ccc(C(=O)/C=C/c6ccc(Cl)cc6)cc5)o4)ccc3[nH]2)cc1OC , please.
3.8

Tell me the measured IC50 of COc1ccc(-c2nc3cc(-c4nnc(SCC(=O)Nc5ccc(C(=O)/C=C/c6cc(OC)c(OC)c(OC)c6)cc5)o4)ccc3[nH]2)cc1OC , please.
10.9

Tell me the measured IC50 of COc1ccc(/C=C/C(=O)c2ccc(NC(=O)CSc3nnc(-c4ccc5[nH]c(-c6cc(OC)c(OC)c(OC)c6)nc5c4)o3)cc2)cc1 , please.
11.2

* * *

Test system: PC-3
Procedure details: NCI one-dose SRB anti-proliferative screen
Assay type: cell-based
Measurement setup: Homo sapiens; PC-3 (Prostate Cancer), NCI one dose 10 µM; read-out: Cell growth inhibition %
Provide the reported inhibition at 10 µM of each item.
Give just the number in %; leave the unit off.

Tell me the measured inhibition at 10 µM of O=C(CSc1nnc(-c2ccc3[nH]c(-c4ccc(Cl)cc4)nc3c2)o1)Nc1ccc(C(=O)/C=C/c2ccccc2)cc1 , please.
0

Tell me the measured inhibition at 10 µM of COc1cc(-c2nc3cc(-c4nnc(SCC(=O)Nc5ccc(C(=O)/C=C/c6ccccc6)cc5)o4)ccc3[nH]2)cc(OC)c1OC , please.
9.18

Tell me the measured inhibition at 10 µM of COc1cc(-c2nc3cc(-c4nnc(SCC(=O)Nc5ccc(C(=O)/C=C/c6ccc(Cl)cc6)cc5)o4)ccc3[nH]2)cc(OC)c1OC , please.
4.91

Tell me the measured inhibition at 10 µM of COc1ccc(/C=C/C(=O)c2ccc(NC(=O)CSc3nnc(-c4ccc5[nH]c(-c6ccc(OC)c(OC)c6)nc5c4)o3)cc2)cc1 , please.
7.58

Tell me the measured inhibition at 10 µM of COc1ccc(-c2nc3cc(-c4nnc(SCC(=O)Nc5ccc(C(=O)/C=C/c6ccc(Cl)cc6)cc5)o4)ccc3[nH]2)cc1OC , please.
2.29

Tell me the measured inhibition at 10 µM of COc1ccc(-c2nc3cc(-c4nnc(SCC(=O)Nc5ccc(C(=O)/C=C/c6ccccc6)cc5)o4)ccc3[nH]2)cc1OC , please.
0

Tell me the measured inhibition at 10 µM of COc1ccc(/C=C/C(=O)c2ccc(NC(=O)CSc3nnc(-c4ccc5[nH]c(-c6ccc(Cl)cc6)nc5c4)o3)cc2)cc1 , please.
17.5

Tell me the measured inhibition at 10 µM of O=C(CSc1nnc(-c2ccc3[nH]c(-c4ccc(Cl)cc4)nc3c2)o1)Nc1ccc(C(=O)/C=C/c2ccc(Cl)cc2)cc1 , please.
12.3
